For each record, write down the corresponding remaining activity at 1 µM.
- Tested target: PKD1 (Homo sapiens)
- Sequence (Q15139 1-912): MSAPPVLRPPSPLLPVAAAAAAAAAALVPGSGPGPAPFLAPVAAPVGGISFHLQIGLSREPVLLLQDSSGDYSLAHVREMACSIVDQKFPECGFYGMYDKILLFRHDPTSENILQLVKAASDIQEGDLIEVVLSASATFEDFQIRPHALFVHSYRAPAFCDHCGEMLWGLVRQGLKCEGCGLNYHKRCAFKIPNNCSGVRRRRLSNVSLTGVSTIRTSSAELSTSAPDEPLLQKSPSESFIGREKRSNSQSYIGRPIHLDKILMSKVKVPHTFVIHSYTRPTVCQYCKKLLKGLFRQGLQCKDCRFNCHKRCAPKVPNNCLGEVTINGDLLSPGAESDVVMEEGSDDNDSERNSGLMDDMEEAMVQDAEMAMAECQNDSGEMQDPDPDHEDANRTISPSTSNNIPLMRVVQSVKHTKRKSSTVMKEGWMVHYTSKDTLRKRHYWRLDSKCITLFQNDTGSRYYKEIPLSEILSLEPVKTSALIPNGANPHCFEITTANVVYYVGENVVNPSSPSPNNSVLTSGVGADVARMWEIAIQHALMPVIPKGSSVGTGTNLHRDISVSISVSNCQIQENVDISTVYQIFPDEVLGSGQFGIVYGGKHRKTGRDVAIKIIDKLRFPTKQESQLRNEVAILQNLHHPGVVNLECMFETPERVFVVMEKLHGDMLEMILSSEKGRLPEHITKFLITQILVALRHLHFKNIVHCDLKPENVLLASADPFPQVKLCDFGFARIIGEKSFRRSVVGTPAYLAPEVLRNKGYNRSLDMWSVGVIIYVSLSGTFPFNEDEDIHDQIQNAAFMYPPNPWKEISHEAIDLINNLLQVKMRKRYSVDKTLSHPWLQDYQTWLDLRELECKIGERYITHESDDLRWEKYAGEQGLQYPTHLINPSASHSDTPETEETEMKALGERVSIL
- Procedure summary: Kinase profiling (radiometric filter-binding)
- Assay type: biochemical
- Condition details: PKD1, 1 µM inhibitor; read-out: Residual activity, %
Square brackets hold non-standard residues; d marks the D form. Peptide text beside a SMILES is read from it. * marks the point of attachment. X3 = O=C(CCCCCNCc1nc2c(sc3cc(Br)cnc32)c(=O)[nH]1)*
Answers are plain numbers, in %.

N=C(N)NCCC[C@@H](NC(=O)CCCCCNCc1nc2c(sc3cc(Br)cnc32)c(=O)[nH]1)C(=O)N[C@H](CCCNC(=N)N)C(=O)N[C@H](CCCNC(=N)N)C(=O)N[C@H](CCCNC(=N)N)C(=O)N[C@H](CCCNC(=N)N)C(=O)N[C@H](CCCNC(=N)N)C(=O)N[C@H](CCCCN)C(N)=O [ARC-3126, BPTP-Ahx-(D-Arg)6-D-Lys-NH2] (X3-[dR][dR][dR][dR][dR][dR][dK]-NH2) | 111
N=C(N)NCCC[C@@H](NC(=O)CNC(=O)[C@@H](CCCNC(=N)N)NC(=O)[C@@H](CCCNC(=N)N)NC(=O)CCCCCCCNCc1nc2c(sc3ccc(Br)cc32)c(=O)[nH]1)C(=O)N[C@H](CCCCN)C(N)=O | 134
N=C(N)NCCC[C@@H](NC(=O)CNC(=O)[C@@H](CCCNC(=N)N)NC(=O)[C@@H](CCCNC(=N)N)NC(=O)CCCCCCCNCc1nc2c(sc3cc(Br)cnc32)c(=O)[nH]1)C(=O)N[C@H](CCCCN)C(N)=O | 128
N=C(N)NCCC[C@@H](NC(=O)CNC(=O)[C@@H](CCCNC(=N)N)NC(=O)[C@@H](CCCNC(=N)N)NC(=O)Cn1cc(CNCc2nc3c(sc4ccc(Br)cc43)c(=O)[nH]2)nn1)C(=O)N[C@H](CCCCN)C(N)=O | 82

The record that follows has no remaining activity at 1 µM shown yet.
Incoming: Could you share which remaining activity at 1 µM value was measured for N=C(N)NCCC[C@@H](NC(=O)CCCCCNC(=O)Cn1cnc2c(I)c(I)c(I)c(I)c21)C(=O)N[C@H](CCCNC(=N)N)C(=O)N[C@H](CCCNC(=N)N)C(=O)N[C@H](CCCNC(=N)N)C(=O)N[C@H](CCCNC(=N)N)C(=O)N[C@H](CCCNC(=N)N)C(=O)N[C@H](CCCCN)C(N)=O ?
Outgoing: 18
